For each entry below, report its Ki value.
Target: PI3Kα (Homo sapiens, UniProt P42336)
Construct: Full length p110 subunits of PI3K α, β and δ, N-terminally labeled with polyHis tag; polyHis (N); made in house; host or cells: Sf9 insect cells (baculovirus)
Sequence (P42336 whole entry): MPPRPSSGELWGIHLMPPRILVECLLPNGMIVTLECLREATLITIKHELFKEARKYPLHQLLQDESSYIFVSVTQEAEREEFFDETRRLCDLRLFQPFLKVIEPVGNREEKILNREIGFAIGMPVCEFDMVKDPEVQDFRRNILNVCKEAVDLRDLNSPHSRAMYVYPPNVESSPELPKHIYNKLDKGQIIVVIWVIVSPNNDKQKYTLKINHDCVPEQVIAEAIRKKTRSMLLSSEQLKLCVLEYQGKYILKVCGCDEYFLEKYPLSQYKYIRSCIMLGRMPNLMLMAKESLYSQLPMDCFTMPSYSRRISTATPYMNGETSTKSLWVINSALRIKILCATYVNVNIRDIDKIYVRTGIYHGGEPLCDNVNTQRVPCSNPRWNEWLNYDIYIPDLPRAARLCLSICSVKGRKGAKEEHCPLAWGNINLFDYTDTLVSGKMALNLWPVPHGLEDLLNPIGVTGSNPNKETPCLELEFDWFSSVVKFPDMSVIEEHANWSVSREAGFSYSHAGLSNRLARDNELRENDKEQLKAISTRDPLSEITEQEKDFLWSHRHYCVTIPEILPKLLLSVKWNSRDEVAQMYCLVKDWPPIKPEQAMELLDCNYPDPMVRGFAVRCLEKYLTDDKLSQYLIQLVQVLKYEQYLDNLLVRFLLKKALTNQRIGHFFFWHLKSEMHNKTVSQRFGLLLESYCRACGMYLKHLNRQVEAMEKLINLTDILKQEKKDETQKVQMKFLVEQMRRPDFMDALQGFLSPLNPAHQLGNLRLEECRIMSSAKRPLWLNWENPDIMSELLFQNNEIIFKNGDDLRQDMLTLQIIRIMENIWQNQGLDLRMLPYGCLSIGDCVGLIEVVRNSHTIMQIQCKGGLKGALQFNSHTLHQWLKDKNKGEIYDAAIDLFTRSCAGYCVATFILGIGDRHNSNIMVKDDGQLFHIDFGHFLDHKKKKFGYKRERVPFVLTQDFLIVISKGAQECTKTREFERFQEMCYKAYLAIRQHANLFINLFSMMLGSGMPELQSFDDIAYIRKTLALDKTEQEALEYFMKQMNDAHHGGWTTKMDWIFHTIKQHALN
Sequence (P27986 whole entry partner): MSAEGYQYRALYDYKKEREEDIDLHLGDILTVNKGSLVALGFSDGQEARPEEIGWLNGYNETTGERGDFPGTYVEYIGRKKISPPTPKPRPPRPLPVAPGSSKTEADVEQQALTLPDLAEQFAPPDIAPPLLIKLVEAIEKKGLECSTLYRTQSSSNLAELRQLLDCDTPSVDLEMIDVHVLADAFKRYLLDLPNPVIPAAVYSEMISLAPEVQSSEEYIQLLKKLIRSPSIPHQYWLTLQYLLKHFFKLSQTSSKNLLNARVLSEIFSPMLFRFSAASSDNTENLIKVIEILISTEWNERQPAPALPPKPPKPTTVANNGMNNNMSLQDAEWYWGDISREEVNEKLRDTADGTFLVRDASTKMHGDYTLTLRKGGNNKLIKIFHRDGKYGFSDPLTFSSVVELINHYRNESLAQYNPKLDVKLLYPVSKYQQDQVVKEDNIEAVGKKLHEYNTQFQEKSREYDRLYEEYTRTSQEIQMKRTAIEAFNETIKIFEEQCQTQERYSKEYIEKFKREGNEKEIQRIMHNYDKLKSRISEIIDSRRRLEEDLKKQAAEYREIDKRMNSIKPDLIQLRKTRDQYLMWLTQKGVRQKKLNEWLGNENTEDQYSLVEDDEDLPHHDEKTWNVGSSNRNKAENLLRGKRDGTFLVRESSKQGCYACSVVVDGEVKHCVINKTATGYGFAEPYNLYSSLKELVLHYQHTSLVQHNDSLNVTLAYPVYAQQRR
Test: In vitro PI3K AlphaScreen assay
Type: biochemical
Conditions: average if run more than once
All answers are understood in µM, so give the number only.

Prompt line: What value of Ki on PI3Kα (Homo sapiens, UniProt P42336) does O=S(=O)(Nc1cc(-c2ccc3c(c2)OCCO3)cnc1Cl)c1ccc(F)cc1 [Example 128] have?
Response line: 0.0333

Prompt line: What value of Ki on PI3Kα (Homo sapiens, UniProt P42336) does Cc1ccccc1OC1CCN(c2ccnc3ccc(-c4cnc(Cl)c(NS(C)(=O)=O)c4)cc23)C1 (stereo not shown) [Example 80] have?
Response line: 0.0294

Prompt line: What value of Ki on PI3Kα (Homo sapiens, UniProt P42336) does COCCN(C)c1ccnc2ccc(-c3cnc(Cl)c(NS(=O)(=O)N(C)CCOC)c3)cc12 [Example 126] have?
Response line: 0.0801

Prompt line: What value of Ki on PI3Kα (Homo sapiens, UniProt P42336) does O=S(=O)(Nc1cc(-c2ccc3nccc(-c4ccnc(Cl)c4)c3c2)cnc1Cl)c1ccc(F)cc1 [Example 94] have?
Response line: 0.0013

---

Biological target: mTOR (Homo sapiens)
Construct: purchased Invitrogen (Carlsbad, Calif.)
Assay: In vitro mTOR assay (Lanthascreen)
Type: biochemical
Conditions: average if run more than once
For each entry below, report its IC50 value.
All answers are understood in µM, so give the number only.

Prompt line: For O=S(=O)(Nc1cc(-c2ccc3nccc(OC4CCSC4)c3c2)cnc1Cl)c1ccc(F)cc1 (stereo not shown) [Example 108] , what is its reported IC50?
Response line: 0.0079

Prompt line: For COCCNc1ccnc2ccc(-c3cnc(Cl)c(NS(=O)(=O)c4ccc(F)cc4)c3)cc12 [Example 98] , what is its reported IC50?
Response line: 1.16

Prompt line: For CCN(Cc1noc(C2CC2)n1)c1ccnc2ccc(-c3cnc(Cl)c(NS(C)(=O)=O)c3)cc12 [Example 77] , what is its reported IC50?
Response line: 0.0677

Prompt line: For CN(C)S(=O)(=O)Nc1cc(-c2ccc3ncc(=O)n(-c4cccc(C(F)(F)F)c4)c3c2)cnc1Cl [Example 133] , what is its reported IC50?
Response line: 0.0005

Prompt line: For CS(=O)(=O)Nc1cc(-c2ccc3nccc(N4CCC(c5ccccc5)CC4)c3c2)cnc1Cl [Example 82] , what is its reported IC50?
Response line: 0.0167

Prompt line: For O=S1(=O)CCC(COc2ccnc3ccc(-c4cnc(Cl)c(NS(=O)(=O)c5ccc(F)cc5)c4)cc23)CC1 [Example 113] , what is its reported IC50?
Response line: 0.0146

Prompt line: For Cc1ccccc1OC1CCN(c2ccnc3ccc(-c4cnc(Cl)c(NS(C)(=O)=O)c4)cc23)C1 (stereo not shown) [Example 80] , what is its reported IC50?
Response line: 0.389

---

Molecular target: mTOR (Homo sapiens, UniProt P42345)
Construct: purchased Invitrogen (Carlsbad, Calif.)
Sequence (P42345 1360-2549 limits assumed): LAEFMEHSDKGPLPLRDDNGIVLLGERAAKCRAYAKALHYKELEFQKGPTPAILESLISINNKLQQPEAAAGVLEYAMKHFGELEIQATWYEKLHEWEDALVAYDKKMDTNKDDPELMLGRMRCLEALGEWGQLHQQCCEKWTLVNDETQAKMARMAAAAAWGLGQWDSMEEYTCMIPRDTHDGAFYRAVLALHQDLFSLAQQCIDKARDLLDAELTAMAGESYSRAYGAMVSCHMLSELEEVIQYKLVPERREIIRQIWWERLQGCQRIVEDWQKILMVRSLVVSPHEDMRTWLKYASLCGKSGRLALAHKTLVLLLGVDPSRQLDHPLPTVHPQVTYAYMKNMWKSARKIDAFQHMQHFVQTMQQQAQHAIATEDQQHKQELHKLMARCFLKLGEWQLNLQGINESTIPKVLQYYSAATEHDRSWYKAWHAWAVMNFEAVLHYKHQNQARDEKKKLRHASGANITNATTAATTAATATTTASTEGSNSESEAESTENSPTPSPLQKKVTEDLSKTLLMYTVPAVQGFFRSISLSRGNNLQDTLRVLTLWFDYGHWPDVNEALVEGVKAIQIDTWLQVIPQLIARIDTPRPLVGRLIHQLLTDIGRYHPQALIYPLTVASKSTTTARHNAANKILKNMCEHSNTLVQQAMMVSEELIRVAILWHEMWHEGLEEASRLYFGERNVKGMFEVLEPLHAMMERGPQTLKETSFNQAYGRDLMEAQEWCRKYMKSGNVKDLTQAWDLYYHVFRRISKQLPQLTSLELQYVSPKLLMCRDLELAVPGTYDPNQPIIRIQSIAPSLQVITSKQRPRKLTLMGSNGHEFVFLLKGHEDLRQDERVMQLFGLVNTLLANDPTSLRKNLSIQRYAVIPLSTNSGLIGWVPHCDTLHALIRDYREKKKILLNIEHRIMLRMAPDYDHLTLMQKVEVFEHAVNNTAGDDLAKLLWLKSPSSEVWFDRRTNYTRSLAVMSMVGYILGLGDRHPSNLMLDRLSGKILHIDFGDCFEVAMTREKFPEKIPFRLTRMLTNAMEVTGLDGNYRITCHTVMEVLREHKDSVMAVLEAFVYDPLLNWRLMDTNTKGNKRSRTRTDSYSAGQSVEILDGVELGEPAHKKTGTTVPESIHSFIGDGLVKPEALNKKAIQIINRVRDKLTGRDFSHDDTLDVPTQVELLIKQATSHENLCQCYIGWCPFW
Assay: In vitro mTOR assay (Lanthascreen)
Type: biochemical
Conditions: average if run more than once
For each entry below, report its IC50 value.
Mention the unit after the number when you answer.

Prompt line: For COc1ccc(S(=O)(=O)Nc2cc(-c3ccc4c(c3)OCCO4)cnc2Cl)cc1 , what is its reported IC50?
Response line: 0.0651 µM

Prompt line: For CN(C)S(=O)(=O)Nc1cc(-c2ccc3nccc(Cl)c3c2)cnc1Cl , what is its reported IC50?
Response line: 0.0077 µM

Prompt line: For C[C@@H]1CN(c2ccnc3ccc(-c4cnc(Cl)c(NS(=O)(=O)c5ccc(F)cc5)c4)cc23)C[C@H](C)O1 , what is its reported IC50?
Response line: 0.011 µM

Prompt line: For C[C@@H]1CN(c2ccnc3ccc(-c4cnc(Cl)c(NS(C)(=O)=O)c4)cc23)C[C@@H](C)O1 (racemic) [Example 104] , what is its reported IC50?
Response line: 0.0058 µM

Prompt line: For CN(C)c1ccc(-c2ccnc3ccc(-c4cnc(Cl)c(NS(=O)(=O)c5ccc(F)cc5)c4)cc23)cc1 , what is its reported IC50?
Response line: 0.0153 µM

Prompt line: For CN(C)S(=O)(=O)Nc1cc(N2CCc3nccc(N4CCOCC4)c3C2)cnc1Cl , what is its reported IC50?
Response line: 0.065 µM

Prompt line: For COCCN(C)S(=O)(=O)Nc1cc(-c2ccc3ncc(=O)n(-c4cccc(C(F)(F)F)c4)c3c2)cnc1Cl , what is its reported IC50?
Response line: 0.0042 µM
